Hi there, I'd appreciate the recorded Leakage (as %) after 1 week at 35° C. for every entry that follows.
experimental protocol: Capsule perfume leakage in liquid fabric enhancer (LFE), headspace SPME GC/MS
Format: physicochemical
measurement conditions: PRM of Perfume 4 out of Comparative Example 9-2 capsules (per EP3078415A, additional TEOS); LFE Composition 1
Note to self: number, then unit, no commentary.

Query: Report Leakage (as %) after 1 week at 35° C. for CC(C=O)Cc1ccc(C(C)(C)C)cc1 (stereo not drawn) [Lilial] please.
Result: 61%

Query: What would you report for CC(=O)/C=C/C1C(C)=CCCC1(C)C (stereo not drawn) [Alpha-ionone] ?
Result: 69%

Query: What would you report for CCCCCC/C(C=O)=C\c1ccccc1 [Hexylcinnamyl aldehyde] ?
Result: 36%

Query: What would you report for CC(=O)OC1CC2CC1C1CC=CC21 (stereo not drawn) [Verdyl acetate] ?
Result: 72%

Query: What would you report for CCCCCCOC(=O)c1ccccc1O [Hexyl Salicylate] ?
Result: 28%

Query: What would you report for CCC(C)(O)CCCC(C)C (stereo not drawn) [Tetrahydro linalool] ?
Result: 76%
